# target_or_test_system: Exon 19 deletion EGFR (activating single mutant) in PC-9 cells (Homo sapiens, UniProt P00533, DEL746-750)
# Construct: cellular phosphorylation of endogenous p-EGFR
# Sequence (P00533 with tags, fused parts or gaps DEL746-750): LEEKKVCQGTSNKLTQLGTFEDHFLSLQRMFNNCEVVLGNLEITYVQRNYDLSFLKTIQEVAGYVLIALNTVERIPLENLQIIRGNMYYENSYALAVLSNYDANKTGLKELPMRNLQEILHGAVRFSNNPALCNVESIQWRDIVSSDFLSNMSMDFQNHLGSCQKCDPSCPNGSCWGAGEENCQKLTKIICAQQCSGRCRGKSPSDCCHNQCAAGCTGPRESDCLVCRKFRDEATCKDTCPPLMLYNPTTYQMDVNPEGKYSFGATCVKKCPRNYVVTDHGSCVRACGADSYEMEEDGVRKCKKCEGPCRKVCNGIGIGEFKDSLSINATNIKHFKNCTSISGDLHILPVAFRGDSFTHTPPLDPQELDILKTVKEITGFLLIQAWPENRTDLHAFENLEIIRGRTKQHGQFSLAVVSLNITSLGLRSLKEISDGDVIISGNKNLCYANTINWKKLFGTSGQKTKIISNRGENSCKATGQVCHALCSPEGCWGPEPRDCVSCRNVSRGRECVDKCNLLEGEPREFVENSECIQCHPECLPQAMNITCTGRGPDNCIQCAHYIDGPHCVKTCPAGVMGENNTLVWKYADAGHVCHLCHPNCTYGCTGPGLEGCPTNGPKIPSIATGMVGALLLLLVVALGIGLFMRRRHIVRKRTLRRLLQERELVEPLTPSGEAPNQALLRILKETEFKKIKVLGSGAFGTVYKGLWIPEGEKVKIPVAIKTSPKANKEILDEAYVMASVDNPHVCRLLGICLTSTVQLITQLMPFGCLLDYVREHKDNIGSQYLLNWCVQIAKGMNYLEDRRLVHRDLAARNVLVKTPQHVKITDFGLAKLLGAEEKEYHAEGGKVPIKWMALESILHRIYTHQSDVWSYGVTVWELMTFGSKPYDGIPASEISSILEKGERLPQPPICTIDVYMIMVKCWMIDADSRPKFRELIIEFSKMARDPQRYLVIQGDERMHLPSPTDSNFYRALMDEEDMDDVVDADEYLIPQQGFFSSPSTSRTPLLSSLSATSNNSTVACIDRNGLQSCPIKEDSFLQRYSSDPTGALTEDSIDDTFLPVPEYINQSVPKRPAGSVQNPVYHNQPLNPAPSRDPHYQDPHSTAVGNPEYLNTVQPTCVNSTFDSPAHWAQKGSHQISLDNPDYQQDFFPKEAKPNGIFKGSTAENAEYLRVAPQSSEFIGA
# experiment_description: Exon 19 deletion EGFR PC-9 cellular autophosphorylation assay (p-EGFR ELISA)
# experimental_context: PC9, 2 h treatment, read-out: SM (PC9) IC50
pIC50: −log10 of the molar value.
observed_property: pIC50

C=CC(=O)Nc1cc(Nc2nccc(-n3nc(N(C)C)c4ccccc43)n2)c(OC(F)F)cc1N(C)CCN(C)C    8.23
C=CC(=O)Nc1cc(Nc2nccc(-n3nc(N(C)C)c4ncccc43)n2)c(OC(F)F)cc1N(C)CCN(C)C    7.83
C=CC(=O)Nc1cc(Nc2nccc(-n3nc(N(C)C)c4ncccc43)n2)c(OCC(F)F)cc1N(C)CCN(C)C    7.62
C=CC(=O)Nc1cc(Nc2nccc(-c3cc(C#N)cc4c3ccn4C)n2)c(OC)cc1N(C)CCN(C)C    7.96
C=CC(=O)Nc1cc(Nc2nccc(-n3nc(NCC)c4ncccc43)n2)c(OC(F)F)cc1N(C)CCN(C)C    8.86

Source of measurements: patent US20200131176A1
